B1: MXI1 peptide 4-19 (Max-interacting protein 1), 16-mer library wild type / SIN3A PAH2 (SIN3A PAH domain, residues 295-383) (parent)
chain 1: VKMINVQRLLEAAEFL
chain 2: SLQNNQPVEFNHAINYVNKIKNRFQGQPDIYKAFLEILHTYQKEQRNAKEAGGNYTPALTEQEVYAQVARLFKNQEDLLSEFGQFLPDA

Variants of: B1
Assay: proteomic peptide phage display deep mutational scan (ProP-PD DMS): M13 P8 16-mer library selected against immobilised GST-tagged bait for four days (rounds), NGS of the eluted pools per day and pseudo-replica
Conditions: with SIN3A PAH2 (SIN3A PAH domain, residues 295-383); bait immobilised on MaxiSorp plates (10 µg), library pre-cleared on GST, 2 h binding at 4 °C, five washes; one round per day, days 1-4; value from days 2 and 3; keep out of graded; scale: average fractional NGS count over selection days 2 and 3
Quick list: screen value per entry.
Reply: number alone, nothing else.

>>> number("chain 1 M3T")
"4.82e-05"

Value lookup for screen value; key = chain 1 E14G
0.00102

Another variant to look at: chain 1 Q7M
0

Can you handle chain 1 E14S next?
0.00604

Try chain 1 R8Y next.
0.000148

What about this variant? chain 1 L9I
0.00165

// query: chain 1 F15A
0.00102

Again, but for chain 1 I4T
0.000667

Next variant: chain 1 L16I
0.00145
